Experiment: Kinetic aqueous solubility by CLND
Type: physicochemical
Conditions: Table 6; kinetic, CLND; read-out: Aq. solubility
Below: a set of entries, each annotated with reported solubility.
Write the number in µM without appending the unit.

• O=C(Nc1ccc(F)c(-c2ccn3c(N4CCCCC4)cnc3n2)c1)N1CCCC1 = 358
• CC(C)Nc1cnc2nc(-c3cc(NC(=O)N4CCCC4)ccc3F)ccn12 = 124
• CC1CN(c2cnc3nc(-c4cc(NC(=O)N5CCCC5)ccc4F)ccn23)CCO1 (stereo not drawn) = 248
• O=C(Nc1ccc(F)c(-c2ccn3c(N4CCOCC4)cnc3n2)c1)N1CCCC1 = 420
• O=C(Nc1ccc(F)c(-c2ccn3c(N4CCC5(CCOC5)C4)cnc3n2)c1)N1CCCC1 (stereo not drawn) = 339

Using the record for O=C(Nc1ccc(F)c(-c2ccn3c(-c4ccccc4)cnc3n2)c1)N1CCCC1 , report its solubility.
39

Using the record for CC1(C)COCCN1c1cnc2nc(-c3cc(NC(=O)N4CCCC4)ccc3F)ccn12 , report its solubility.
210

Using the record for CC1(C)CN(c2cnc3nc(-c4cc(NC(=O)N5CCCC5)ccc4F)ccn23)CCO1 , report its solubility.
247

Using the record for CC(C)c1cnc2nc(-c3cc(NC(=O)N4CCCC4)ccc3F)ccn12 , report its solubility.
231

Using the record for CC(C)Cc1cnc2nc(-c3cc(NC(=O)N4CCCC4)ccc3F)ccn12 , report its solubility.
182

Using the record for C[C@@H]1CN(c2cnc3nc(-c4cc(NC(=O)N5CCCC5)ccc4F)ccn23)C[C@H](C)O1 , report its solubility.
142

Using the record for O=C(Nc1ccc(F)c(-c2ccn3c(-c4ccccn4)cnc3n2)c1)N1CCCC1 , report its solubility.
74

---

Tested on: THP-1 cells
Assay: THP-1 host cell read-out of the INMAC assay
Type: cell-based
Settings: Homo sapiens, THP-1; supplementary csv; read-out: THP1 pIC50 (converted)
Procedure: Intramacrophage L. donovani Assay. This assay was conducted as previously described, except for […]
Below: a set of entries, each annotated with reported IC50.
Write the number in µM without appending the unit.

- CN1CCOCC1c1cnc2nc(-c3cc(NC(=O)N4CCCC4)ccc3F)ccn12 (stereo not shown) [Compound 33]: 50.1

We next turn to a different compound, shown below.
Using the record for O=C(Nc1ccc(F)c(-c2ccn3c(CN4CCOCC4)cnc3n2)c1)N1CCCC1 [Compound 32] , report its IC50.
63.1

---

Assay: Kinetic aqueous solubility by CLND
Format: physicochemical
Conditions: supplementary csv; read-out: Aqueous Solubility
Below: a set of entries, each annotated with reported solubility.
Write the number in µM without appending the unit.

• CC(C)Cc1cnc2nc(-c3cc(NC(=O)N4CCCC4)ccc3F)ccn12 [Compound 31] = 180
• CC1CN(c2cnc3nc(-c4cc(NC(=O)N5CCCC5)ccc4F)ccn23)CCO1 (centres unmarked) [Compound 38] = 250
• CC(C)c1cnc2nc(-c3cc(NC(=O)N4CCCC4)ccc3F)ccn12 [Compound 30] = 240
• C[C@@H]1CN(c2cnc3nc(-c4cc(NC(=O)N5CCCC5)ccc4F)ccn23)C[C@H](C)O1 [Compound 41] = 170
• O=C(Nc1cnnc(-c2cn3cc(N4CCOCC4)cnc3n2)c1)N1CCCC1 [Compound 13] = 360

We next turn to a different molecule, shown below.
Using the record for O=C(Nc1ccc(F)c(-c2cn3nc(N4CCOCC4)cnc3n2)c1)N1CCCC1 [Compound 23] , report its solubility.
130

---

Assay: in vivo
Format: in vivo
Settings: female, NMRI, in vivo; po PK 10 mg/kg, mouse
assay.metric: Tmax at 24 h (min)
Write the number in min without appending the unit.

Using the record for O=C(Nc1ccc(F)c(-c2cn3cc(N4CCOCC4)cnc3n2)c1)N1CCCC1 [Compound 4] , report its Tmax at 24 h.
30

---

Test: Kinetic aqueous solubility by CLND
Assay type: physicochemical
Conditions: Table 1; kinetic solubility, CLND; read-out: aqueous solubility
assay.metric: solubility (µM)
Write the number in µM without appending the unit.

Using the record for O=C(Nc1ccc(F)c(-c2cn3cc(N4CCOCC4)cnc3n2)c1)N1CCCC1 [Compound 4] , report its solubility.
150

---

System: L. donovani amastigotes
Test: INMAC assay: intramacrophage L. donovani in differentiated THP-1 cells
Type: cell-based, Leishmania donovani
Conditions: Leishmania donovani, THP-1; Table 2; at least three replicates, SD ≤0.4; read-out: INMAC (pEC50) (converted)
assay.metric: EC50

Previously resolved entries follow.
• COc1ccc(NC(=O)N2CCCC2)cc1-c1cn2cc(N3CCOCC3)cnc2n1 = > 50.1 µM
• O=C(Nc1cc(-c2cn3cc(N4CCOCC4)cnc3n2)ccc1F)N1CCCC1 = 15.8 µM
• O=C(Nc1cccc(-c2cn3cc(N4CCOCC4)cnc3n2)n1)N1CCCC1 = > 50.1 µM

We next turn to a different compound, shown below.
Using the record for O=C(Nc1cc(-c2cn3cc(N4CCOCC4)cnc3n2)ncn1)N1CCCC1 , report its EC50.
> 50.1 µM

---

Assay: Mouse liver microsomal intrinsic clearance
Format: in vitro ADME
Details: Table 6; mouse liver microsomes
assay.metric: Mouse CLi (mL/min/g)
Write the number in mL/min/g without appending the unit.

- O=C(Nc1ccc(F)c(-c2ccn3c(N4CCCCC4)cnc3n2)c1)N1CCCC1: 8.4
- O=C(Nc1ccc(F)c(-c2ccn3c(N4CCC5(CCOC5)C4)cnc3n2)c1)N1CCCC1 (centres unmarked): 3.7
- CC1(C)CN(c2cnc3nc(-c4cc(NC(=O)N5CCCC5)ccc4F)ccn23)CCO1: 2.9
- CC(=O)N1CCN(c2cnc3nc(-c4cc(NC(=O)N5CCCC5)ccc4F)ccn23)CC1: 1.5
- O=C(Nc1ccc(F)c(-c2ccn3c(-c4ccccc4)cnc3n2)c1)N1CCCC1: 2.5
- CC1CN(c2cnc3nc(-c4cc(NC(=O)N5CCCC5)ccc4F)ccn23)CCO1 (centres unmarked): 1.7
- CC(C)Cc1cnc2nc(-c3cc(NC(=O)N4CCCC4)ccc3F)ccn12: 15

We next turn to a different compound, shown below.
Using the record for CC(C)Nc1cnc2nc(-c3cc(NC(=O)N4CCCC4)ccc3F)ccn12 , report its Mouse CLi.
5.2

---

Test: in vivo
Assay type: in vivo
Conditions: female, Balb/c, in vivo; iv PK 3 mg/kg, mouse
assay.metric: AUC at 24 h (ng·h/mL)
Write the number in ng·h/mL without appending the unit.

Using the record for O=C(Nc1ccc(F)c(-c2cn3cc(N4CCOCC4)cnc3n2)c1)N1CCCC1 , report its AUC at 24 h.
2250

---

Below: a set of entries, each annotated with reported Cli (mouse, ml/min/g).
Experiment: Mouse liver microsomal intrinsic clearance
Format: in vitro ADME
Conditions: supplementary csv; mouse
Write the number in mL/min/g without appending the unit.

Using the record for O=C(Nc1ccc(F)c(-c2ccn3c(CN4CCOCC4)cnc3n2)c1)N1CCCC1 , report its Cli (mouse, ml/min/g).
16

Using the record for O=C(Nc1ccc(F)c(-c2ccn3c(N4CCC5(CCOC5)C4)cnc3n2)c1)N1CCCC1 (stereo not shown) , report its Cli (mouse, ml/min/g).
3.7

Using the record for CC(C)c1cnc2nc(-c3cc(NC(=O)N4CCCC4)ccc3F)ccn12 , report its Cli (mouse, ml/min/g).
4.6

---

Assay: Mouse liver microsomal intrinsic clearance
Assay type: in vitro ADME
Conditions: Table 6; mouse liver microsomes
Sorting guide: entries reporting Mouse CLi beneath 3 mL/min/g go in the y pile, the rest go in the n pile.

- O=C1CN(c2cnc3nc(-c4cc(NC(=O)N5CCCC5)ccc4F)ccn23)CCN1 [Compound 37]: y
- O=C(Nc1ccc(F)c(-c2ccn3c(CN4CCOCC4)cnc3n2)c1)N1CCCC1 [Compound 32]: n

Determine whether this compound shows Mouse CLi lower than 3 mL/min/g (ties excluded): CC(C)c1cnc2nc(-c3cc(NC(=O)N4CCCC4)ccc3F)ccn12 [Compound 30]
n

Determine whether this compound shows Mouse CLi lower than 3 mL/min/g (ties excluded): O=C(Nc1ccc(F)c(-c2ccn3c(N4CCNCC4)cnc3n2)c1)N1CCCC1 [Compound 35]
y

Determine whether this compound shows Mouse CLi lower than 3 mL/min/g (ties excluded): CN1CCOCC1c1cnc2nc(-c3cc(NC(=O)N4CCCC4)ccc3F)ccn12 (centres unmarked) [Compound 33]
n

Determine whether this compound shows Mouse CLi lower than 3 mL/min/g (ties excluded): C[C@@H]1CN(c2cnc3nc(-c4cc(NC(=O)N5CCCC5)ccc4F)ccn23)C[C@H](C)O1 [Compound 41]
n

Determine whether this compound shows Mouse CLi lower than 3 mL/min/g (ties excluded): O=C(Nc1ccc(F)c(-c2ccn3c(-c4ccccn4)cnc3n2)c1)N1CCCC1 [Compound 29]
y

Determine whether this compound shows Mouse CLi lower than 3 mL/min/g (ties excluded): CC1(C)COCCN1c1cnc2nc(-c3cc(NC(=O)N4CCCC4)ccc3F)ccn12 [Compound 43]
n

---

Test system: L. donovani amastigotes
Test: INMAC assay: intramacrophage L. donovani in differentiated THP-1 cells
Type: cell-based, Leishmania donovani
Details: Leishmania donovani, THP-1; Table 6; at least three replicates, SD ≤0.4; read-out: INMAC pEC50 (converted)
Below: a set of entries, each annotated with reported EC50.
Write the number in nM without appending the unit.

Previously resolved entries follow.
- CC(C)Cc1cnc2nc(-c3cc(NC(=O)N4CCCC4)ccc3F)ccn12: 501
- O=C(Nc1ccc(F)c(-c2ccn3c(N4CCC5(CCOC5)C4)cnc3n2)c1)N1CCCC1 (centres unmarked): 1260
- CC(C)c1cnc2nc(-c3cc(NC(=O)N4CCCC4)ccc3F)ccn12: 1260
- C[C@@H]1CN(c2cnc3nc(-c4cc(NC(=O)N5CCCC5)ccc4F)ccn23)C[C@H](C)O1: 1580

Using the record for O=C(Nc1ccc(F)c(-c2ccn3c(CN4CCOCC4)cnc3n2)c1)N1CCCC1 , report its EC50.
10000
